tested on: AM38; experiment: Chou-Talalay combination index (dimensionless); higher = less synergy (more antagonism); settings: exposure time: 72 h
# reported Chou-Talalay combination index; entries follow
Quick one: just the number, no unit, thanks!

1) Nc1ccn([C@@H]2O[C@H](CO)[C@@H](O)C2(F)F)c(=O)n1 [Gemcitabine] + CO[C@H]1C[C@@H]2CC[C@@H](C)[C@@](O)(O2)C(=O)C(=O)N2CCCC[C@H]2C(=O)O[C@H]([C@H](C)C[C@@H]2CC[C@@H](O)[C@H](OC)C2)CC(=O)[C@H](C)/C=C(\C)[C@@H](O)[C@@H](OC)C(=O)[C@H](C)C[C@H](C)/C=C/C=C/C=C/1C [Rapamycin] ... 0.998
2) CCC(=O)N1CCN(c2ccc(-n3c(=O)ccc4cnc5ccc(-c6cnc7ccccc7c6)cc5c43)cc2C(F)(F)F)CC1 [Torin1] + O=c1[nH]c2ccccc2n1C1CCN(Cc2ccc(-c3[nH]c4cc5ncnc5cc4nc3-c3ccccc3)cc2)CC1 [Akt inhibitor VIII] ... 0.83
3) CC(=O)O[C@@]12CO[C@@H]1C[C@H](O)[C@@]1(C)C(=O)[C@H](O)C3=C(C)[C@@H](OC(=O)[C@H](O)[C@@H](NC(=O)OC(C)(C)C)c4ccccc4)C[C@@](O)([C@@H](OC(=O)c4ccccc4)[C@H]21)C3(C)C [Docetaxel] + O=c1[nH]c2ccccc2n1C1CCN(Cc2ccc(-c3[nH]c4cc5ncnc5cc4nc3-c3ccccc3)cc2)CC1 [Akt inhibitor VIII] ... 0.894

The record that follows has no Chou-Talalay combination index shown yet.
[in] What does the record list as Chou-Talalay combination index for CO[C@H]1C[C@@H]2CC[C@@H](C)[C@@](O)(O2)C(=O)C(=O)N2CCCC[C@H]2C(=O)O[C@H]([C@H](C)C[C@@H]2CC[C@@H](O)[C@H](OC)C2)CC(=O)[C@H](C)/C=C(\C)[C@@H](O)[C@@H](OC)C(=O)[C@H](C)C[C@H](C)/C=C/C=C/C=C/1C [Rapamycin] + C=CCc1cccc(/C=N/NC(=O)CN2CCN(Cc3ccccc3)CC2)c1O [PAC-1] ?
[out] 1.24
